assay: DPPH radical scavenging assay; conditions: read-out: Antioxidant Activity (IC50) DPPH; isolates and standards; mean ± SD, n = 3
pIC50: −log10 of the molar value.
MEASUREMENT_KIND: pIC50

Record excerpt, results attached:
- O=C(OC1C(O)OC2COC(=O)c3cc(Oc4c(C(=O)O)cc(O)c(O)c4O)c(O)c(O)c3-c3c(cc(O)c(O)c3O)C(=O)OC2C1OC(=O)c1cc(O)c(O)c(O)c1)c1cc(O)c(O)c(O)c1 (stereo not shown): 5.52
- O=c1c(O)c(-c2ccc(O)c(O)c2)oc2cc(O)cc(O)c12 [Quercetin, reference compound]: 4.76
- COC(=O)c1cc(O)c(O)c(O)c1Oc1cc2c(c(O)c1O)-c1c(cc(O)c(O)c1O)C(=O)OC1C(COC2=O)OC(O)C(OC(=O)c2cc(O)c(O)c(O)c2)C1OC(=O)c1cc(O)c(O)c(O)c1 (stereo not shown): 5.44
- O=C(OC[C@H]1O[C@@H](OC(=O)c2cc(O)c(O)c(O)c2)[C@H](OC(=O)c2cc(O)c(O)c(O)c2)[C@@H](OC(=O)c2cc(O)c(O)c(O)c2)[C@@H]1OC(=O)c1cc(O)c(O)c(O)c1)c1cc(O)c(O)c(O)c1: 5.42
- COC(=O)c1cc(O)c(O)c(O)c1Oc1cc2c(c(O)c1O)-c1c(cc(O)c(O)c1O)C(=O)O[C@H]1[C@H](OC(=O)c3cc(O)c(O)c(O)c3)[C@@H](OC(=O)c3cc(O)c(O)c(O)c3)[C@H](OC(=O)c3cc(O)c(O)c(O)c3)O[C@@H]1COC2=O: 5.37
- O=C(OC[C@H]1O[C@@H](OC(=O)c2cc(O)c(O)c(O)c2)[C@H](OC(=O)c2cc(O)c(O)c(O)c2)[C@@H](OC(=O)c2cc(O)c(O)c(O)c2)[C@@H]1O)c1cc(O)c(O)c(O)c1: 5.40
- O=C1O[C@H]([C@@H](O)CO)C(O)=C1O [Vitamin C, ascorbic acid, reference compound]: 4.50
- O=C(O)[C@H]1O[C@@H](Oc2c(-c3ccc(O)c(O)c3)oc3cc(O)cc(O)c3c2=O)[C@H](O)[C@@H](O)[C@@H]1O: 4.80

a. O=C(O)[C@H]1O[C@@H](Oc2c(O)cc(O)c3c(=O)c(O)c(-c4ccc(O)cc4)oc23)[C@H](O)[C@@H](O)[C@@H]1O
b. O=C(O[C@@H]1O[C@@H]2COC(=O)c3cc(Oc4c(C(=O)O)cc(O)c(O)c4O)c(O)c(O)c3-c3c(cc(O)c(O)c3O)C(=O)O[C@H]2[C@H](OC(=O)c2cc(O)c(O)c(O)c2)[C@H]1OC(=O)c1cc(O)c(O)c(O)c1)c1cc(O)c(O)c(O)c1
## Input Given the listed items, does a or b have the lesser reported pIC50? Your answer should be the label attached to the chosen record.
## Output a
